- Test system: IAV (H1N1/CApdm09)
- test protocol: Influenza A virus inhibition (plaque) assay
- Assay type: cell-based
- experimental parameters: read-out: concentration required to suppress IAV (by 50%)
recorded metric: IC50

query: Value lookup for IC50; key = SVPTSVYTLGIKILWSAYKHRKTIEKSFNKGFYH [D-PLNC8 β]
result: ~0.5 µM

Where do these numbers come from? They come from paper PMC9710782.
